Reference source: ChEMBL document CHEMBL1201862

Entries and their GI50
test system: OVCAR-5; assay: NCI tumour cell line growth inhibition, 48 h
Active and inactive are the calls of the source. No stated cut-off is given here; in the data, active = GI50 up to about 1.1 µM and inactive = higher.
property_label: GI50

molecule	property_label	result
Cc1c2cc[n+](C)cc2c(C)c2c1[nH]c1ccc(Oc3ccccc3)cc12	GI50	3.31 µM (inactive)
O=C1c2cccc3cc([N+](=O)[O-])cc(c23)C(=O)N1CCCN1CCN(CCCN2C(=O)c3cccc4cc([N+](=O)[O-])cc(c34)C2=O)CC1	GI50	1.65 µM (inactive)
CCN(CC)CCn1c(=O)c2cccnc2n2c3c(=O)n(C)c(=O)n(C)c3nc12	GI50	> 100 µM (inactive)
O=C1OC2C(O)COC2(O)C1(O)C(C[N+](=O)[O-])c1ccc(Cl)cc1 (stereo not drawn)	GI50	16.4 µM (inactive)
O[C@]12CCCC[C@H]1CCC2	GI50	> 100 µM (inactive)
CC(C)OC(=O)NNc1cc(Cl)ccc1Cl	GI50	> 100 µM (inactive)
Cc1c(C(=O)c2ccccc2C(=O)O)c2ccccc2n1C	GI50	> 100 µM (inactive)
CC1CC(N2CCOCC2)=Nc2ccccc2N1C (stereo not drawn)	GI50	> 100 µM (inactive)
COc1cc(/C=C/C(=O)CC(=O)/C=C/c2cc(C)c(O)c(OC)c2)cc(C)c1O	GI50	> 100 µM (inactive)
CCOC(=O)C(CO)c1nc2c([nH]c1=O)c(=O)n(C)c(=O)n2C (stereo not drawn)	GI50	> 100 µM (inactive)
CC1OC(OC2CCCc3c(O)c4c(c(O)c32)C(=O)c2ccccc2C4=O)CC(N)C1O (stereo not drawn)	GI50	1.91 µM (inactive)
O=C(NC1(c2cc3ccccc3s2)CCCCC1)C1CCC1	GI50	> 100 µM (inactive)
C[C@H]1[C@H](C)CC[C@]2(C(=O)O)CCC3(COC(=O)/C=C/c4ccc(O)cc4)C(=CCC4[C@@]5(C)CC[C@H](O)C(C)(C)C5CC[C@]43C)[C@H]12 (stereo partly drawn)	GI50	14.8 µM (inactive)

---

system: Hs-578T; assay: NCI tumour cell line growth inhibition, 48 h
Calls of active or inactive are those of the source. Rule as the data show it: active = GI50 up to about 1.1 µM and inactive = higher.
Labels: active, inactive

compound	class_name
CNC(=O)CC1NC(=O)c2csc(n2)-c2ccc(-c3nc(C4=NC(C(=O)N5CCCC5C(N)=O)CO4)cs3)nc2-c2csc(n2)-c2csc(n2)C(C(C)C)NC(=O)CNC(=O)c2csc(n2)C(C(C)C)NC(=O)c2nc1sc2C (centres undefined)	inactive
Cc1nn(-c2ccccn2)c2c1C(SC#N)=C(C=O)CC2	inactive
CC(=O)c1ccc2c(c1)N(CCCN1CCN(CCO)CC1)c1ccccc1C2	inactive
O=S(=O)(/N=c1/[nH]c2ccccc2n1S(=O)(=O)c1ccccc1)c1ccccc1	inactive
Cc1cn([C@@H]2C[C@@H]2CO)c(=O)[nH]c1=O	inactive
Cc1ccccc1Nc1nc(NNC(=O)Cc2ccccc2)nc(NNC(=O)c2ccncc2)n1	inactive
C=CC(C)(C)n1cc(C2=C(O)C(=O)C(c3cn(C(C)(C)C=C)c4ccccc34)=C(O)C2=O)c2ccccc21	inactive
c1ccc(CSc2nnc3c4ccccc4c4ccccc4c3n2)cc1	inactive
COc1ccc(Cc2ccccc2C(=O)O)c2ccccc12	inactive
O=C(O)COc1cc(-c2ccccc2)nc2ccc(F)cc12	inactive
CC(=O)NNc1nc(C)c(C(/C=C/c2cccc([N+](=O)[O-])c2)=N/NC(=S)NN)s1	inactive
Cc1cn(CCCCOC(=O)NC(CCCNC(N)=O)C(=O)O)c(=O)[nH]c1=O (centres undefined)	inactive
CCOC(=O)c1cccc([N+](=O)[O-])c1N	inactive
COc1ccc2ccc3oc(=O)c(C)cc3c2c1	inactive
COC(=O)/C=C/c1ccc2nncnc2c1.COC(=O)/C=C\c1ccc2nncnc2c1	inactive
COC(=O)C1(CCC(=O)N(C)c2ccccc2)NNC2C(=O)N(c3ccccc3)C(=O)C21 (centres undefined)	inactive
CCSCCCCC(c1ccc(O)cc1)C(C)(CC)c1ccc(O)cc1 (centres undefined)	inactive
C[C@@H]([C@H]1CC[C@@]2(C)[C@@H]3CC[C@@H]4C(=CC3=CC[C@]12C)CC[C@H](N(C)C)C4(C)C)N(C)C	inactive
Cn1c2c(c3ccccc31)CCN1C(=O)C3SC21C1C(=O)N(c2ccccc2)C(=O)C31 (centres undefined)	inactive
O=C1CN(C(=O)C2CCCN2C(=O)C2CCCN2)C(=O)CN1 (centres undefined)	inactive
CN1C2CCC1C(CO)C(=O)C2 (centres undefined)	inactive
Cc1cc2c(=Cc3ccc(N(C)C)cc3)c3ccccc3n2[n+]1C	active
CC(=O)OI1NC(=O)c2ccccc21	inactive
COc1ccc(C2(c3ccc(OC)cc3)OC(=O)c3cccc4cccc2c34)cc1	inactive
O=C(Nc1ccc(Cl)cc1)[C-](C(=O)c1ccc(Br)cc1)[n+]1cccc(-c2ccc(Cl)cc2)n1	inactive
CCOc1cc(-c2nc3ccccn3c2/N=C/c2cc(Br)ccc2O)ccc1O	inactive
C[C@]12CC[C@H]3[C@@H](CC[C@]4(O)C[C@@H](O)CC[C@]34C=O)[C@@]1(O)CC[C@@H]2C1=CC(=O)OC1	active
Cc1ccc(CC(=O)Nc2ccc(NC(=O)CNC(=O)/C=C/c3ccc(-c4ccccc4)cc3)cc2C(=O)c2ccccc2)cc1	inactive
COc1ccccc1C(=O)OCC1CCCN2CCCCC12 (centres undefined)	inactive
Cc1nc(-c2ccc(Cl)cc2)cn2c1nc1ccccc12	inactive
COc1cc2c(cc1OC)C1C=NC(C2)c2cc(OC)c(OC)cc21 (centres undefined)	inactive
Clc1nc(Cl)c(Cc2ccccc2)c(Cl)n1	inactive
COc1cc(/C=C2\CC3C4CC[C@H]5C[C@@H](O)CC[C@]5(C)C4CC[C@]3(C)\C2=N\O)cc(OC)c1OC (some centres undefined)	inactive
c1ccc(CSSSCc2ccccc2)cc1 [DIBENZYL TRISULFIDE]	inactive
SC1=NC2=C(CSC/C2=C\c2cccc(Br)c2)C(c2cccc(Br)c2)N1 (centres undefined)	inactive
COc1ccc(CCNC(=O)Cc2ccccc2CCO)cc1OC	inactive
CCOC(=O)c1c(-c2ccc(O)c(OC)c2)c(C#N)c(=S)n(C2OC(COC(C)=O)C(OC(C)=O)C(OC(C)=O)C2OC(C)=O)c1-c1ccccc1 (centres undefined)	inactive
COc1cc2c(/C=C3/C(=O)Nc4ccc(O)cc43)c(Cl)[nH]c2cc1C	active
COC(=O)c1ccccc1/C=C1\Cc2cc(C)cc(C)c2C1=O	inactive
